// provenance: patent US20250304643A1

Molecular target: human GIPR (Homo sapiens)
Sequence (P48546 22-466): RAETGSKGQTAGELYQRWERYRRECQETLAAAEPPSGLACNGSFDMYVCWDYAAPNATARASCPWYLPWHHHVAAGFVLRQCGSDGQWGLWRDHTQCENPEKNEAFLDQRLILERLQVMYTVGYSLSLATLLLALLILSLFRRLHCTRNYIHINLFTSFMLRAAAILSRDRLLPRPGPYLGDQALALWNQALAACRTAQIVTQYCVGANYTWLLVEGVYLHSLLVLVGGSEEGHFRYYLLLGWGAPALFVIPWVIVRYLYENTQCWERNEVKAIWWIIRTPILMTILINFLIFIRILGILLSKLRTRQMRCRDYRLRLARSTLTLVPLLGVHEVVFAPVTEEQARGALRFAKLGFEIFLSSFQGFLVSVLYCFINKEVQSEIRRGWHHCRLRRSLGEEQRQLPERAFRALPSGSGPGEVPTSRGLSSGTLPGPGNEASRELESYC
Format: cell-based
Design: host or cells: COS-7
Settings: Emax normalized to highest concentration of endogenous ligand; Table 2
Label no if Efficacy GIPR falls below 100; label yes in every other case.

{"Substance": "H-Aib-DG-K(γGlu-C10)-FISDYST-Aib-LDNLAARDFINWLIQTKITK-OH [Compound no. 24]", "Test target": "human GIPR (Homo sapiens)", "Classification": "yes"}
{"Substance": "H-Aib-DGTFISDY-K(yglu-C10)-T-Aib-LDNLAARDFINWLIQTKITGNDWKHNITQ-OH [Compound no. 54]", "Test target": "human GIPR (Homo sapiens)", "Classification": "no"}
{"Substance": "Ac-H-Aib-DGTFISDYS-K(γGlu-C16)-Aib-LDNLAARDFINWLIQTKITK-OH [Compound no. 36]", "Test target": "human GIPR (Homo sapiens)", "Classification": "no"}
{"Substance": "H-Aib-DGTFISDYS-K(γGlu-C16)-Aib-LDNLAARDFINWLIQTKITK-OH [Compound no. 35]", "Test target": "human GIPR (Homo sapiens)", "Classification": "yes"}
{"Substance": "(C16)HADGTFISDYSTILDNLAARDFINWLIQTKIT [Compound no. 2]", "Test target": "human GIPR (Homo sapiens)", "Classification": "no"}
